Molecular target: AHR (Homo sapiens, UniProt P35869)
Construct: other cell line with a DRE-luciferase reporter stably transfected; endogenous in cells
Sequence (P35869 11-848): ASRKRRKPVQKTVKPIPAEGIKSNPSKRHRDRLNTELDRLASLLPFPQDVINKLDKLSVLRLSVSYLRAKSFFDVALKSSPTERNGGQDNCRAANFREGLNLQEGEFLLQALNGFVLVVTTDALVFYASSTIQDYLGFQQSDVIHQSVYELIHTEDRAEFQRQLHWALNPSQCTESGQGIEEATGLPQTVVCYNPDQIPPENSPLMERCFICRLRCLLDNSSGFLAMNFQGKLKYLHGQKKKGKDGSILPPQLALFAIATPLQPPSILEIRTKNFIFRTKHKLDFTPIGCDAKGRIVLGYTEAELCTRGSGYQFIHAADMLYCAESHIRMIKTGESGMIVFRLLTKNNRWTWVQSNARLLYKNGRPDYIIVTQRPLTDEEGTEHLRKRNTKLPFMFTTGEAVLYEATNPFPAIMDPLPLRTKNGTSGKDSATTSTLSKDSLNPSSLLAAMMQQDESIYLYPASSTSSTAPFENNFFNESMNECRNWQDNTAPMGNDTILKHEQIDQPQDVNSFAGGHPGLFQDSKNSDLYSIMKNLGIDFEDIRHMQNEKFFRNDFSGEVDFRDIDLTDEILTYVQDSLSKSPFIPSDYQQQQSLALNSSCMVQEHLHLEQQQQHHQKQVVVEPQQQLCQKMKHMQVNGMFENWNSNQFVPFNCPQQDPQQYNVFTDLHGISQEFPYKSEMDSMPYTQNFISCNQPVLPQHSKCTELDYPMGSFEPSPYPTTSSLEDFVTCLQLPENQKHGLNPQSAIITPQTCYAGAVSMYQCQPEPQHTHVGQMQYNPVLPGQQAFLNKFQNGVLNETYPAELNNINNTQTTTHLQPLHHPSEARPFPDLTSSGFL
Test: DRE-Luciferase Reporter Assay, HepG2 AhR-Lucia reporter cells
Conditions: with AHR activating ligand at EC50, read-out: HepG2-Luc IC50
pIC50: −log10 of the molar value.

| molecule | pIC50 |
| --- | --- |
| C[C@@H](CO)n1cnc2c(-c3cnn(C)c3)nc(-c3ccc(Cl)cc3)cc2c1=O [Compound 27] | > 7.00 |
| Cn1cc(-c2nc(-c3cnc(C(F)(F)F)s3)cc3c(=O)n([C@H]4COC[C@@H]4O)cnc23)cn1 [Compound 171] | > 7.00 |
| C[C@@H](CO)n1cnc2c(C3CCCCC3)nc(-c3ccc(C(F)(F)F)cn3)cc2c1=O [Compound 189] | < 6.30 |
| CC(C)(O)Cn1cnc2c(-c3cnsc3)nc(-c3ccc(C(F)(F)F)nc3)cc2c1=O [Compound 54] | > 7.00 |
| Cc1ccc(-c2cc3c(=O)n([C@@H](C)COCc4ccccc4)cnc3c(-c3cccc(F)c3)n2)cc1 [Compound 40] | < 6.30 |
| C[C@@H](CO)n1cnc2c(-c3cccnc3)nc(C(=O)N(C)C)cc2c1=O [Compound 190] | < 6.30 |
| CC(C)(O)Cn1cnc2c(-c3cccnc3)nc(-c3cnc(C(F)(F)F)nc3)cc2c1=O [Compound 96] | > 7.00 |
| Cn1cc(-c2nc(-c3ccc(C(F)(F)F)cn3)cc3c(=O)n([C@@H]4COC[C@@H]4O)cnc23)cn1 [Compound 149] | > 7.00 |
| Cc1ccncc1-c1nc(-c2ccc(C(F)(F)F)nc2)cc2c(=O)n([C@@H](C)CO)cnc12 [Compound 64] | < 6.30 |
| C[C@@H](CO)n1cnc2c(-c3cnn(C)c3)nc(-c3ccccc3)cc2c1=O [Compound 26] | 6.30 to 7.00 |
| O=c1c2cc(-c3ccc(Cl)cc3)nc(-c3cccnc3)c2ncn1[C@H]1COC[C@@H]1O [Compound 125] | > 7.00 |
| Cc1ccc(-c2cc3c(=O)n([C@@H](C)CO)cnc3c(-c3cccnc3)n2)nc1 [Compound 186] | > 7.00 |
| Cn1cc(-c2nc(-c3ccc(C(F)(F)F)cn3)cc3c(=O)n(C[C@H](O)C(F)(F)F)cnc23)cn1 [Compound 147] | > 7.00 |
| O=c1c2cc(-c3ccc(Cl)cc3)nc(-c3cccnc3)c2ncn1C[C@H](O)C(F)(F)F (single isomer, unassigned) [185 enantiomer 2] | > 7.00 |
| CC(C)(O)Cn1cnc2c(-c3cnn(C(F)(F)F)c3)nc(-c3ccc(C(F)(F)F)nc3)cc2c1=O [Compound 94] | > 7.00 |
| C[C@@H](CO)n1cnc2c(C3=CCCCC3)nc(-c3ccc(C(F)(F)F)cn3)cc2c1=O [Compound 188] | 6.30 to 7.00 |
| O=c1c2cc(-c3cnc(C(F)(F)F)s3)nc(-c3cccnc3)c2ncn1[C@@H]1COC[C@H]1O [Compound 173] | 6.30 to 7.00 |
| O=c1c2cc(-c3ccc(Cl)cc3)nc(-c3cccc(F)c3)c2ncn1C[C@H](O)C(F)(F)F (stereo in doubt) [Compound 41] | > 7.00 |
| C[C@@H](CO)n1cnc2c(-c3cccnc3)nc(-c3ccc(C(F)(F)F)cn3)cc2c1=O [Compound 46] | > 7.00 |
| Cc1ccc(-c2cc3c(=O)n([C@H](CO)C(C)C)cnc3c(-c3cc(F)cc(F)c3)n2)cc1 [Compound 37] | > 7.00 |
| O=c1c2cc(-c3ccc(Cl)cc3)nc(-c3cccnc3)c2ncn1[C@@H]1CNC[C@H]1O [Compound 134] | > 7.00 |
| Cn1cc(-c2nc(-c3ccc(C4CC4)nc3)cc3c(=O)n(C[C@H](O)C(F)(F)F)cnc23)cn1 [Compound 136] | > 7.00 |
| Cc1ncsc1-c1cc2c(=O)n([C@@H](C)CO)cnc2c(-c2cccnc2)n1 [Compound 65] | 6.30 to 7.00 |
| C[C@H](O)Cn1cnc2c(-c3cnn(C)c3)nc(-c3ccc(C(F)(F)F)cn3)cc2c1=O [Compound 142] | > 7.00 |
| C[C@@H](CO)n1cnc2c(N3CCOCC3)nc(-c3ccc(C(F)(F)F)nc3)cc2c1=O [Compound 178] | > 7.00 |
| C[C@@H](O)Cn1cnc2c(-c3cnn(C)c3)nc(-c3ccc(C(F)(F)F)nc3)cc2c1=O [Compound 108] | > 7.00 |
| C[C@@H](C(=O)O)n1cnc2c(-c3cccnc3)nc(-c3ccc(C(F)(F)F)nc3)cc2c1=O [Compound 155] | < 6.30 |
| Cn1cc(-c2nc(-c3cnc(C(F)(F)F)s3)cc3c(=O)n([C@@H]4COC[C@H]4O)cnc23)cn1 [Compound 172] | > 7.00 |
| O=c1c2cc(-c3ccc(C(F)(F)F)nc3)nc(-c3cccnc3)c2ncn1[C@H]1COC[C@@H]1O [Compound 117] | > 7.00 |
| Cn1cc(-c2nc(-c3cnc(C(F)(F)F)s3)cc3c(=O)n(CC(C)(C)O)cnc23)cn1 [Compound 170] | > 7.00 |

====

fraction unbound at 30 min, 1 μM values by entry
test: Plasma Protein Binding with Ultracentrifugation Method, human; assay type: in vitro ADME; conditions: human plasma, 1.0 μM; read-out: Human plasma protein binding (% bound)
quantity: fraction unbound at 30 min, 1 μM

| smiles-str | value-reported |
| --- | --- |
| C[C@@H](CO)n1cnc2c(-c3cccnc3)nc(-c3ccc(C4CC4)nc3)cc2c1=O | < 0.25 |
| C[C@@H](CO)n1cnc2c(-c3cncc(F)c3)nc(-c3ccc(OC(F)(F)F)cc3)cc2c1=O | < 0.25 |
| C[C@@H](CO)n1cnc2c(-c3cccnc3)nc(-c3ccc(OC(F)(F)F)cc3)cc2c1=O | < 0.25 |
| C[C@@H](CO)n1cnc2c(-c3cccc(F)c3)nc(-c3ccc(C(F)(F)F)cn3)cc2c1=O | < 0.25 |
| Cn1cc(-c2nc(-c3ccc(C(F)(F)F)nc3)cc3c(=O)n(CC(C)(C)O)cnc23)cn1 | < 0.25 |
| C[C@@H](CO)n1cnc2c(-c3cccc(F)c3)nc(-c3ccc(C(F)(F)F)nc3)cc2c1=O | < 0.25 |

====

test: Solubility Determination Assay in PBS pH 1.6 and pH 7.4; type: physicochemical; conditions: PBS buffer, aqueous buffer, kinetic from dmso stock, PBS pH 7.4, 25° C., read-out: Aq. Solubility at pH = 7.4
Here, each record is paired with measured solubility at 2 h data.

| molecule | solubility at 2 h |
| --- | --- |
| CC(C)(O)Cn1cnc2c(-c3cnsc3)nc(-c3ccc(C(F)(F)F)cn3)cc2c1=O [Compound 101] | < 0.1 µM |
| Cn1cc(-c2nc(-c3ccc(C4CC4)nc3)cc3c(=O)n(C[C@H](O)C(F)(F)F)cnc23)cn1 [Compound 136] | 0.1 to 1 µM |
| C[C@@H](CO)n1cnc2c(-c3cnn(C)c3)nc(-c3ccc(OC(F)(F)F)cc3)cc2c1=O [Compound 25] | < 0.1 µM |
| CC(C)(O)Cn1cnc2c(-c3cccnc3)nc(-c3ccc(C(F)(F)F)nc3)cc2c1=O [Compound 9] | ≥ 1 µM |
| O=c1c2cc(-c3ccc(C(F)(F)F)nc3)nc(-c3cccnc3)c2ncn1[C@@H]1COC[C@@H]1O [Compound 129] | ≥ 1 µM |
| Cc1ccc(-c2cc3c(=O)n([C@H](CO)C(C)C)cnc3c(-c3cc(F)cc(F)c3)n2)cc1 [Compound 37] | < 0.1 µM |
| C[C@@H](CO)n1cnc2c(-c3cccnc3)nc(-c3ccc(C4CC4)nc3)cc2c1=O [Compound 74] | ≥ 1 µM |
| C[C@@H](CO)n1cnc2c(-n3ccnc3)nc(-c3ccc(C(F)(F)F)nc3)cc2c1=O [Compound 163] | ≥ 1 µM |
| Cn1cc(-c2nc(-c3ccc(C(F)(F)F)cn3)cc3c(=O)n(CC(C)(C)O)cnc23)cn1 [Compound 103] | < 0.1 µM |
| C[C@@H](CO)n1cnc2c(-c3cccnc3)nc(-c3ccc(C(F)(F)F)cc3)cc2c1=O [Compound 23] | ≥ 1 µM |
| C[C@@H](CO)n1cnc2c(-c3cccc(F)c3)nc(-c3ccc(C(F)(F)F)cn3)cc2c1=O [Compound 47] | 0.1 to 1 µM |
